Target: human GnRH receptor (Homo sapiens, UniProt P30968)
Construct: expressed in transfected cells; host or cells: HEK 293 (hGnRH-R/293, from Dr. Stuart Sealfon)
Sequence (P30968 whole entry): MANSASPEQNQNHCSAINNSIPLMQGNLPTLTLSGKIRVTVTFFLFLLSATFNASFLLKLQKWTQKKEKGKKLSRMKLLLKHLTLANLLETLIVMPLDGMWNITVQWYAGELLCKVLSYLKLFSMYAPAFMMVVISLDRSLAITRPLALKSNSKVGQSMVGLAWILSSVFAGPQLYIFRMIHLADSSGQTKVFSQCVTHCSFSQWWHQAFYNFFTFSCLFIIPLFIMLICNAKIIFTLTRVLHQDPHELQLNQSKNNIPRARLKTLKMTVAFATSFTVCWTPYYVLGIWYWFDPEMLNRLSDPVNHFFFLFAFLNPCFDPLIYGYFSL
Experiment: Radioligand binding, 125I-GnRH-A displacement, membranes of HEK 293 cells with human GnRH receptor
Details: 1 h, substrate remaining; 10 uM compound; closer to zero = closer to 100% inhibition; read-out: S%R 10 uM hGnRHR
Recorded remaining activity at 10 µM by entry
Return type: number; implicit unit %.

Below, 3 compounds whose answers are already recorded.
COC(=O)c1ccc(OC)c(NC(=O)c2ccc(Cc3cc4c(cc3C)C(C)(C)CCC4(C)C)o2)c1 | 4
Cc1cc2c(cc1Cc1ccc(C(=O)Nc3cccc4ncccc34)o1)C(C)(C)CCC2(C)C | -14
Cc1cc2c(cc1Cc1ccc(C(=O)Nc3ccc(O)c4ncccc34)o1)C(C)(C)CCC2(C)C | 20

The recorded remaining activity at 10 µM with human GnRH receptor (Homo sapiens, UniProt P30968) for Cc1cc2c(cc1Cc1ccc(C(=O)Nc3ccc(N(C)C)cc3)o1)C(C)(C)CCC2(C)C was 2

Test item Cc1cc2c(cc1Cc1ccc(C(=O)Nc3ccc4c(c3)OCO4)o1)C(C)(C)CCC2(C)C ; human GnRH receptor (Homo sapiens, UniProt P30968); reported remaining activity at 10 µM was 15

Assay human GnRH receptor (Homo sapiens, UniProt P30968), sample Cc1cc2c(cc1Cc1ccc(C(=O)Nc3ccc(O)c(C)c3C)o1)C(C)(C)CCC2(C)C , remaining activity at 10 µM read: 50

remaining activity at 10 µM value, target or system human GnRH receptor (Homo sapiens, UniProt P30968), for Cc1cc2c(cc1Cc1ccc(C(=O)Nc3cc(CO)ccc3C)o1)C(C)(C)CCC2(C)C : 1

Bench note, human GnRH receptor (Homo sapiens, UniProt P30968): Cc1cc2c(cc1Cc1ccc(C(=O)Nc3nccc4ccccc34)o1)C(C)(C)CCC2(C)C , remaining activity at 10 µM reads 17

Reported remaining activity at 10 µM (human GnRH receptor (Homo sapiens, UniProt P30968)) for entry Cc1cc2c(cc1Cc1ccc(C(=O)Nc3ccccc3C(=O)NCCCN3CCCC3=O)o1)C(C)(C)CCC2(C)C is 56

Result for Cc1cc2c(cc1Cc1ccc(C(=O)Nc3ncccc3C)o1)C(C)(C)CCC2(C)C , tested on human GnRH receptor (Homo sapiens, UniProt P30968), remaining activity at 10 µM: 4

These data points were gathered from patent US7101878B1.
